tested on: Vaccinia-infected cells, mCherry/Venus stage reporter fluorescence; assay: inhibition of vaccinia stage-reporter fluorescence – cell-based, dry powder, dose response (AID 1053166)
REPORTED_METRIC: AC50

Look over these answered cases.
> print(dat)
                           molecular.string   result
1  Cc1ccccc1-c1ccc(CN(C)C[C@@H]2Oc3cc(C#C[C@@H](C)O)ccc3S(=O)(=O)N([C@@H](C)CO)C[C@@H]2C)cc1  1.15 µM
2  Cc1ccc(-c2ccc(CN(C)C[C@@H]3Oc4cc(C#C[C@@H](C)O)ccc4S(=O)(=O)N([C@@H](C)CO)C[C@@H]3C)cc2)cc1  1.79 µM
3  Cc1cccc(-c2ccc(CN(C)C[C@@H]3Oc4cc(C#C[C@@H](C)O)ccc4S(=O)(=O)N([C@@H](C)CO)C[C@@H]3C)cc2)c1  2.37 µM

Read the next record carefully.
Look up and report AC50, with Vaccinia-infected cells, mCherry/Venus stage reporter fluorescence as system, for "C[C@@H](O)C#Cc1ccc2c(c1)O[C@@H](CN(C)Cc1ccc(-c3ccccc3Cl)cc1)[C@@H](C)CN([C@@H](C)CO)S2(=O)=O"
0.992 µM

This collection of values is drawn from PubChem BioAssay AID1053166.
